Assay conditions: in 2-propoxyethanol, 283.15 K
Measured endpoint: solubility (mole fraction)

| Smiles str | Experimental result |
| --- | --- |
| CC(=O)N1CCN(c2ccc(O)cc2)CC1 | 0.00403 |

* * *

Assay conditions: in ethylene glycol, 303.15 K

| Smiles str | solubility (mole fraction) |
| --- | --- |
| CC(=O)N1CCN(c2ccc(O)cc2)CC1 | 0.00167 |

* * *

Assay conditions: in n-butanol, 288.15 K
Measured endpoint: solubility (mole fraction)

| Smiles str | Experimental result |
| --- | --- |
| CC(=O)N1CCN(c2ccc(O)cc2)CC1 | 0.00151 |

* * *

Assay conditions: in 2-propoxyethanol, 288.15 K
Measured endpoint: solubility (mole fraction)

| Smiles str | Experimental result |
| --- | --- |
| CC(=O)N1CCN(c2ccc(O)cc2)CC1 | 0.00474 |

* * *

Assay conditions: in isopropanol, 308.15 K
Measured endpoint: solubility (mole fraction)

| Smiles str | Experimental result |
| --- | --- |
| CC(=O)N1CCN(c2ccc(O)cc2)CC1 | 0.00418 |

* * *

Assay conditions: in 2-butoxyethanol, 303.15 K

| Smiles str | solubility (mole fraction) |
| --- | --- |
| CC(=O)N1CCN(c2ccc(O)cc2)CC1 | 0.00617 |

* * *

Assay conditions: in ethylene glycol, 298.15 K

| Smiles str | solubility (mole fraction) |
| --- | --- |
| CC(=O)N1CCN(c2ccc(O)cc2)CC1 | 0.00123 |

* * *

Assay conditions: in methanol, 298.15 K
Measured endpoint: solubility (mole fraction)

| Smiles str | Measured endpoint | Experimental result |
| --- | --- | --- |
| CC(=O)N1CCN(c2ccc(O)cc2)CC1 | solubility (mole fraction) | 0.00485 |

* * *

Assay conditions: in ethylene glycol, 313.15 K

| Smiles str | solubility (mole fraction) |
| --- | --- |
| CC(=O)N1CCN(c2ccc(O)cc2)CC1 | 0.00293 |

* * *

Assay conditions: in 2-butoxyethanol, 313.15 K

| Smiles str | solubility (mole fraction) |
| --- | --- |
| CC(=O)N1CCN(c2ccc(O)cc2)CC1 | 0.00852 |

* * *

Assay conditions: in ethanol, 318.15 K

| Smiles str | solubility (mole fraction) |
| --- | --- |
| CC(=O)N1CCN(c2ccc(O)cc2)CC1 | 0.00749 |

* * *

Assay conditions: in 2-methoxyethanol, 313.15 K

| Smiles str | solubility (mole fraction) |
| --- | --- |
| CC(=O)N1CCN(c2ccc(O)cc2)CC1 | 0.0181 |

* * *

Assay conditions: in 2-ethoxyethanol, 313.15 K
Measured endpoint: solubility (mole fraction)

| Smiles str | Measured endpoint | Experimental result |
| --- | --- | --- |
| CC(=O)N1CCN(c2ccc(O)cc2)CC1 | solubility (mole fraction) | 0.0134 |

* * *

Assay conditions: in 2-methoxyethanol, 288.15 K
Measured endpoint: solubility (mole fraction)

| Smiles str | Experimental result |
| --- | --- |
| CC(=O)N1CCN(c2ccc(O)cc2)CC1 | 0.00822 |

* * *

Assay conditions: in isopropanol, 283.15 K

| Smiles str | solubility (mole fraction) |
| --- | --- |
| CC(=O)N1CCN(c2ccc(O)cc2)CC1 | 0.00132 |

* * *

Assay conditions: in methanol, 283.15 K

| Smiles str | solubility (mole fraction) |
| --- | --- |
| CC(=O)N1CCN(c2ccc(O)cc2)CC1 | 0.00286 |
